Quick list: pIC50 per entry.
Target: GRK2 (Homo sapiens, UniProt P25098)
Sequence (P25098 1-689): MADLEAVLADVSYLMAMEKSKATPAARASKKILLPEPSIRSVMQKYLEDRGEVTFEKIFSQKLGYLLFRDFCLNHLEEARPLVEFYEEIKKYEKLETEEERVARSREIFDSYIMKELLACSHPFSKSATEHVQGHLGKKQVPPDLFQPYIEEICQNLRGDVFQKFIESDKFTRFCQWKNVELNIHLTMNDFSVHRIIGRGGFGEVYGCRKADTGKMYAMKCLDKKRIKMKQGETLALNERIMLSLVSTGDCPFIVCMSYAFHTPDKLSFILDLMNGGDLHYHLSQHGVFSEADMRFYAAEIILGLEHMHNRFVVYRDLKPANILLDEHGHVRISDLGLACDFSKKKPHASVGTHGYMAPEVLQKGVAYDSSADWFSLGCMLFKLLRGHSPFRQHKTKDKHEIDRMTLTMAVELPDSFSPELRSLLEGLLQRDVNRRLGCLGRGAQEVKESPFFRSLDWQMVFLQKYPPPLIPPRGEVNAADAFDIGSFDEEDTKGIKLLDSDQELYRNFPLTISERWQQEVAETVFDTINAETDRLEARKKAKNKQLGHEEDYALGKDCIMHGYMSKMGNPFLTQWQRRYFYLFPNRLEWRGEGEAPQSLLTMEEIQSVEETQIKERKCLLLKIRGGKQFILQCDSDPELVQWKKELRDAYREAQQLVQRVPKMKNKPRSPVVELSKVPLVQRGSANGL
Experiment: GRK2 Inhibition Assay (TR-FRET, Example 1)
Assay type: biochemical
Conditions: Table 4; Example 1 assay; read-out: Enzymatic GRK2 IC50: Av IC50 GRK2
Reminder that pIC50 means the negative base-10 logarithm of the concentration expressed in mol/L.

Field: example entries. Status: answers known.
C[C@@H](NC(=O)c1cccc(NCc2nnc(-c3ccncn3)n2C)c1)c1cccc(OCCN2CCN(c3ccc4c(c3)CN(C3CCC(=O)NC3=O)C4=O)CC2)c1 (some centres unmarked) [Compound D128] :: 7.79
C[C@@H](NC(=O)c1cccc(NCc2nnc(-c3ccncn3)n2C)c1)c1ccc(OCCCCCCOCCOCCOCCC(=O)N2CCN(c3cc4c(cc3F)C(=O)N(C3CCC(=O)NC3=O)C4=O)CC2)cc1 (some centres unmarked) [Compound D137] :: 7.90
C[C@@H](NC(=O)c1cccc(NCc2nnc(-c3ccncn3)n2C)c1)c1cccc(OCCCCCCOCCOCCN2CCN(c3ccc4c(c3)CN(C3CCC(=O)NC3=O)C4=O)CC2)c1 (some centres unmarked) [Compound D135] :: 7.63
C[C@@H](NC(=O)c1cccc(NCc2nnc(-c3ccncn3)n2C)c1)c1ccc(OCCCN2CCN(c3ccc4c(c3)CN(C3CCC(=O)NC3=O)C4=O)CC2)cc1 (some centres unmarked) [Compound D173] :: 7.73
Cc1ncsc1-c1ccc(CNC(=O)[C@@H]2C[C@@H](O)CN2C(=O)[C@@H](NC(=O)CCCOCCOCCOCCCCCCCCOc2ccc([C@@H](C)NC(=O)c3cccc(NCc4nnc(-c5ccncn5)n4C)c3)cc2)C(C)(C)C)cc1 [Compound D148] :: 7.85
C[C@@H](NC(=O)c1cccc(NCc2nnc(-c3ccncn3)n2C)c1)c1cccc(OCCCCCOCCCOCC(=O)N2CCN(c3ccc4c(c3)CN(C3CCC(=O)NC3=O)C4=O)CC2)c1 (some centres unmarked) [Compound D181] :: 7.93
C[C@@H](NC(=O)c1cccc(NCc2nnc(-c3ccncn3)n2C)c1)c1cccc(OCCCCCOCCCOCC(=O)N2CCN(c3cc4c(cc3F)C(=O)N(C3CCC(=O)NC3=O)C4=O)CC2)c1 (some centres unmarked) [Compound D180] :: 8.14
C[C@@H](NC(=O)c1cccc(NCc2nnc(-c3ccncn3)n2C)c1)c1cccc(OCC(=O)N2CCN(c3ccc4c(c3)CN(C3CCC(=O)NC3=O)C4=O)CC2)c1 (some centres unmarked) [Compound D176] :: 7.62
C[C@@H](NC(=O)c1cccc(NCc2nnc(-c3ccncn3)n2C)c1)c1cccc(OCCCCCCOCCOCCOCCCC(=O)N2CCN(c3ccc4c(c3)CN(C3CCC(=O)NC3=O)C4=O)CC2)c1 (some centres unmarked) [Compound D179] :: 8.20
C[C@@H](NC(=O)c1cccc(NCc2nnc(-c3ccncn3)n2C)c1)c1cccc(OCCCCCCOCC(=O)N2CCN(c3ccc4c(c3)CN(C3CCC(=O)NC3=O)C4=O)CC2)c1 (some centres unmarked) [Compound D132] :: 7.79

Quick one: pIC50 for C[C@H](NC(=O)c1cccc(NCc2nnc(-c3ccncn3)n2C)c1)c1cccc(OCCCCCCOCCOCCOCCCC(=O)Nc2cccc3c2CN(C2CCC(=O)NC2=O)C3=O)c1 (some centres unmarked) [Compound D154] ?
6.74

// query pIC50 value for entry C[C@@H](NC(=O)c1cccc(NCc2nnc(-c3ccncn3)n2C)c1)c1cccc(OCCCCCCOCCOCCOCCC(=O)N2CCN(c3cc4c(cc3F)C(=O)N(C3CCC(=O)NC3=O)C4=O)CC2)c1 (some centres unmarked) [Compound D130]
7.75

Could you tell me which pIC50 is on file for C[C@@H](NC(=O)c1cccc(NCc2nnc(-c3ccncn3)n2C)c1)c1cccc(OCCCCCOCCCOCCOc2cccc3c2CN(C2CCC(=O)NC2=O)C3=O)c1 (some centres unmarked) [Compound D198] ?
7.66

Param item = C[C@@H](NC(=O)c1cccc(NCc2nnc(-c3ccncn3)n2C)c1)c1ccc(OCCCCCCOCCOCCOCCCC(=O)N2CCN(c3ccc4c(c3)CN(C3CCC(=O)NC3=O)C4=O)CC2)cc1 (some centres unmarked) [Compound D124] ; retrieve measured pIC50.
8.27

###

molecules and their reported inhibition at 0.3 µM
biological target: GRK2 (Homo sapiens); test: GRK2 Degradation Assay and Western Blot in PAXF1657 cells; format: cell-based; design: endogenous in cells; host or cells: PAXF1657; settings: Conc 0.3 uM; read-out: Degradation Assay - 3 point: Degradation (%)
Kindly report the value followed by its unit.

Recorded inhibition at 0.3 µM, per entry:
C[C@@H](NC(=O)c1cccc(NCc2nnc(-c3ccncn3)n2C)c1)c1cccc(OCCCCCOCCCOCC(=O)N2CCN(c3cc4c(cc3F)C(=O)N(C3CCC(=O)NC3=O)C4=O)CC2)c1 (some centres unmarked) :: 43%
Cc1ncsc1-c1ccc(CNC(=O)[C@@H]2C[C@@H](O)CN2C(=O)[C@@H](NC(=O)COCCCOCCCCCOc2cccc([C@H](C)NC(=O)c3cccc(NCc4nnc(-c5ccncn5)n4C)c3)c2)C(C)(C)C)cc1 :: 1.96%
C[C@@H](NC(=O)c1cccc(NCc2nnc(-c3ccncn3)n2C)c1)c1ccc(OCCCCCCOCCOCCOCCCC(=O)Nc2cccc3c2CN(C2CCC(=O)NC2=O)C3=O)cc1 (some centres unmarked) :: 81.4%

Can you share its inhibition at 0.3 µM? I mean this molecule: C[C@@H](NC(=O)c1cccc(NCc2nnc(-c3ccncn3)n2C)c1)c1cccc(OCCCCCOCCCOCCNc2cccc3c2CN(C2CCC(=O)NC2=O)C3=O)c1 (some centres unmarked)
66.2%

For the molecule shown here, Cc1ncsc1-c1ccc(CNC(=O)[C@@H]2C[C@@H](O)CN2C(=O)[C@@H](NC(=O)CCCCOCCOCCOCCCCCCOc2cccc(CNC(=O)c3cccc(NCc4nnc(-c5ccncn5)n4C)c3)c2)C(C)(C)C)cc1 , give the reported inhibition at 0.3 µM.
26.1%

###

molecular target: GRK2 (Homo sapiens); assay: GRK2 Degradation Assay and Western Blot in PAXF1657 cells; assay type: cell-based; set-up: endogenous in cells; host or cells: PAXF1657; settings: 24-hour treatment in PAXF1657 cells
readoutName: GRK2 degradation, dose dependence (FIGS. 1A-1D)

Cn1c(CNc2cccc(C(=O)NCc3cccc(OCCCCCOCCCOCC(=O)Nc4cccc5c4CN(C4CCC(=O)NC4=O)C5=O)c3)c2)nnc1-c1ccncn1 (stereo not shown) :: Dose dependent
Cn1c(CNc2cccc(C(=O)NCc3cc(OCCCCCCOCCOCCOCCCCCC(=O)Nc4cccc5c4CN(C4CCC(=O)NC4=O)C5=O)ccc3F)c2)nnc1-c1ccncn1 (stereo not shown) :: Dose dependent
Cn1c(CNc2cccc(C(=O)NCc3cccc(OCCCCCCOCCOCCOCCCCCC(=O)Nc4cccc5c4CN(C4CCC(=O)NC4=O)C5)c3)c2)nnc1-c1ccncn1 (stereo not shown) :: Dose dependent
CC(NC(=O)c1cccc(NCc2nnc(-c3ccncn3)n2C)c1)c1cccc(OCCCCCCOCCOCCOCCCCCC(=O)Nc2cccc3c2CN(C2CCC(=O)NC2=O)C3=O)c1 (stereo not shown) :: Dose dependent

###

molecular target: GRK2 (Homo sapiens, UniProt P25098); experiment: GRK2 Degradation Assay and Western Blot in PAXF1657 cells; assay type: cell-based; parameters: endogenous in cells; host or cells: PAXF1657; settings: 3 uM, PAXF1657 EV, 24 hrs; read-out: % GRK2 degradation at 3 uM in PAXF1657 EV (24 hrs)
readoutName: inhibition at 3 µM (%)
Enter your answer as a number in %; do not include the unit.

Completed entries (count: 4):
Cc1ncsc1-c1ccc(CNC(=O)[C@@H]2C[C@@H](O)CN2C(=O)[C@@H](NC(=O)CCCc2cn(CCCCCOc3cccc(CNC(=O)c4cccc(NCc5nnc(-c6ccncn6)n5C)c4)c3)nn2)C(C)(C)C)cc1 :: 5
Cn1c(CNc2cccc(C(=O)NCc3cccc(OCCCCCCOCCOCC(=O)Nc4cccc5c4CN(C4CCC(=O)NC4=O)C5=O)c3)c2)nnc1-c1ccncn1 (centres unmarked) :: 64
Cn1c(CNc2cccc(C(=O)NCc3cccc(OCCCCCn4cc(CCCC(=O)Nc5cccc6c5CN(C5CCC(=O)NC5=O)C6=O)nn4)c3)c2)nnc1-c1ccncn1 (centres unmarked) :: 53
Cc1ncsc1-c1ccc([C@H](C)NC(=O)[C@@H]2C[C@@H](O)CN2C(=O)[C@@H](NC(=O)CCCCCOCCOCCOCCCCCCOc2cccc(CNC(=O)c3cccc(NCc4nnc(-c5ccncn5)n4C)c3)c2)C(C)(C)C)cc1 :: 20

Now for another entry.
Item under review: Cn1c(CNc2cccc(C(=O)NCc3cccc(OCCCCCCC(=O)NCCOCCOCCOCCC(=O)Nc4cccc5c4CN(C4CCC(=O)NC4=O)C5=O)c3)c2)nnc1-c1ccncn1 (centres unmarked) . Reported inhibition at 3 µM?
15

These measurements were taken from patent US20240174637A1.
